# assayed_target: Leishmania amazonensis recombinant arginase (L-ARG) (Leishmania amazonensis)
# measurement_description: Determination of Ki, Kis and mechanism of inhibition of L-ARG (Dixon and Cornish-Bowden plots)
# Format: biochemical
# measurement_parameters: L-arginine 25, 50, 100 mM, pH 9.5
Listed next: entries and their corresponding log10(Kis).
measure_name: log10(Kis) (log10 of the value in µM)

1. O=C(/C=C/c1ccccc1)NCCc1ccc(O)c(O)c1    0.70
2. COC(=O)C(CS)NC(=O)/C=C/c1ccc(O)c(O)c1 (centres unmarked)    1.45
3. O=C(/C=C/c1ccc(O)c(O)c1)NCCc1ccc(O)c(O)c1    0.40
4. COc1cc(/C=C/C(=O)NCCc2ccc(O)c(O)c2)ccc1O    0.98
5. COC(=O)C(Cc1ccc(O)c(O)c1)NC(=O)/C=C/c1ccc(O)c(O)c1 (centres unmarked)    1.43

Entry source: paper PMC7696938
